inhibition in vivo at 50 mg/kg overview
Tested on: Mus musculus
Experiment: In vivo inhibitory activity on the increase of serum GOT induced by D-GalN / LPS (liver injury) in mice at 50 mg/kg peroral administration
Format: functional
Details: route oral
metric: inhibition in vivo at 50 mg/kg (%)

{"molecule": "C/C1=C\\CC[C@@H](C)C(=O)C[C@@H](C(C)C)C(=O)C1", "reading": 58.4}
{"molecule": "COc1cc(/C=C/C(=O)CC(=O)/C=C/c2ccc(O)c(OC)c2)ccc1O", "reading": 63.4}
{"molecule": "C/C1=C\\Cc2c(C)coc2C/C(C)=C/CC1", "reading": 74.3}
{"molecule": "CC(C)=C1CC2[C@@H](CC[C@]2(C)O)[C@](C)(O)CC1=O (stereo not given in full)", "reading": 54.7}
{"molecule": "CC(C)=C1CC(=O)[C@@H](C)CC/C=C(\\C)CC1=O", "reading": 46.2}
